Reported gMFI of bound PVR-m2aFc at 266 pM mAb is given for each of the following binders.
Biological target: T1, human TIGIT on cells (human, UniProt Q495A1 22-141)
T1 construct: also called Expi293 human TIGIT over-expressing cells
T1 sequence: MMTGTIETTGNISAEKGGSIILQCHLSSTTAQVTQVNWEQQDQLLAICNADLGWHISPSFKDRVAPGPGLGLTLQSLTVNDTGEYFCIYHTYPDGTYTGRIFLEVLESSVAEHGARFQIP
Test: FACS blocking: Expi293 human TIGIT cells pre-incubated with mAb, then human PVR-m2aFc; lower gMFI = more blocking
Give the figure by itself; no unit, no explanation.

Solved cases (2 shown):
# BINDER, OUTCOME_MEASURE, EXPERIMENTAL_VALUE
measured = [
    ("CPA.9.059 hIgG4 (antibody, V domains shown, phage-derived anti-TIGIT, human IgG4; also called CPA.9.059-H4) VH: EVQLVETGGGLIQPGGSLRLSCAASGFTVSSNYMSWVRQAPGKGLEWVSVIYSGGSTYYADSVKGRFTISRDNSKNTLYLQMNSLRAEDTAVYYCARGARYSYGQYPYWGQGTLVTVSS VL: DIQLTQSPSFLSASVGDRVTITCRASHDISSLFSWYQQKPGKAPKLLIYAASTLQTGVPSRFSGSASGTEFTLTISSLQPEDFATYYCLQLDSFPTWTFGQGTKVEIKR", "gMFI of bound PVR-m2aFc at 266 pM mAb", 509),
    ("CPA.9.049 hIgG4 (antibody, V domains shown, phage-derived anti-TIGIT, human IgG4; also called CPA.9.049-H4) VH: EVQLVETGGGLIQPGRSLRLSCAASGFTFSSYAMHWVRQAPGKGLEWVAVISYDGSNKYYADSVKGRFTISRDNSKNTLYLQMNSLRAEDTAVYYCARDPLPLHYYGMDVWGQGTTVTVSS VL: QSALTQPRSASGNPGQRVTISCSGSSSNMGRRPVNWYQQIPGTAPKLLIYSQNQRPSGVPDRFSGSQSGTSASLTISGLQSEDEAEYFCAVWDDSLFSLLLGGGTQLAVLG", "gMFI of bound PVR-m2aFc at 266 pM mAb", 511),
]

API: the following record is the query input.
QUERY: What value of measured gMFI of bound PVR-m2aFc at 266 pM mAb is listed for CPA.9.027 hIgG4 (antibody, V domains shown, phage-derived anti-TIGIT, human IgG4; also called CPA.9.027-H4) VH: EVQLVETGGGLIQPGRSLRLSCAASGFTFSSYAMHWVRQAPGKGLEWVAVISYDGSNKYYADSVKGRFTISRDNSKNTLYLQMNSLRAEDTAVYYCARDPLPLHYYGMDVWGQGTTVTVSS VL: QSALTQPRSASGNPGQRVTISCSGSSSNMGRRPVNWYQQIPGTAPKLLIYSQNQRPSGVPDRFSGSQSGTSASLTISGLQSEDEAEYFCAVWDDSLSSLQLGGGTQLAVLG ?
RESULT: 529
